target_system: MC4 receptor (Homo sapiens)
Sequence (P32245 whole entry): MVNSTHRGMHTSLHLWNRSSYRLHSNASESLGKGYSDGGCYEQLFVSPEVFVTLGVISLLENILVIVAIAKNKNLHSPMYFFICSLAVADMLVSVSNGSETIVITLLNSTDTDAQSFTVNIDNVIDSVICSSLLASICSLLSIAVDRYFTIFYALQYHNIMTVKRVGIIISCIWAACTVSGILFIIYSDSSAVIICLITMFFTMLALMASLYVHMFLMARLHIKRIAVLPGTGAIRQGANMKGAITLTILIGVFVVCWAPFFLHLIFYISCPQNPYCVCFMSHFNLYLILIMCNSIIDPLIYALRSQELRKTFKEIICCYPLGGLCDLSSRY
assay_explanation: MC4 EC50 functional potency (protocol E of US2005/0176772 / WO 2005/077935)
pEC50: −log10 of the molar value.
I would appreciate it if you labelled entries rule met when pEC50 is 8 or higher, otherwise rule not met.

Does pEC50 meet or surpass 8 for CS(=O)(=O)N1CCN(C(=O)C2CN(c3ccc(=O)[nH]n3)CC2c2ccc(F)cc2F)CCCC1c1ccc(F)cc1 (stereo not drawn) ?
rule not met

# next compound below
Does pEC50 meet or surpass 8 for COC(=O)N1CCN(C(=O)[C@@H]2CN(c3ccc(Cl)nn3)C[C@H]2c2ccc(OC)cc2F)CCCC1c1ccc(Cl)cc1 (mixture of isomers) ?
rule not met

----------
assay_explanation: In vitro metabolism rate determination, human liver microsome (HLM) assay
Assay type: in vitro ADME
stated_conditions: human, liver microsomes, read-out: HLM: Clint, app
outcome_measure: microsomal CLint at 1 μM (µL/min/mg)
A number alone suffices; assume µL/min/mg.

Give the measured microsomal CLint at 1 μM of COc1ccc([C@@H]2CN(c3ccc(Cl)nn3)C[C@H]2C(=O)N2CCCC(c3ccc(Cl)cc3)N(S(C)(=O)=O)CC2)c(F)c1 (stereo partly drawn) [Example 108] .
59

Give the measured microsomal CLint at 1 μM of COC(=O)N1CCN(C(=O)[C@@H]2CN(c3ccc(=O)n(C)n3)C[C@H]2c2ccc(OC)cc2F)CCCC1c1ccc(Cl)cc1 (mixture of isomers) [Example 116] .
12

Give the measured microsomal CLint at 1 μM of COc1ccc([C@@H]2CN(c3ccc(C#N)nn3)C[C@H]2C(=O)N2CCC[C@@H](c3ccc(Cl)cc3)N(C(C)=O)CC2)c(F)c1 [Example 67] .
21.4

Give the measured microsomal CLint at 1 μM of CS(=O)(=O)N1CCN(C(=O)C2CN(c3ccc(=O)[nH]n3)CC2c2ccc(F)cc2F)CCCC1c1ccc(F)cc1 (stereo not drawn) [Example 78] .
54

Give the measured microsomal CLint at 1 μM of CS(=O)(=O)N1CCN(C(=O)[C@@H]2CN(c3ccc(C#N)nn3)C[C@H]2c2ccc(F)cc2F)CCCC1c1ccc(Cl)cc1 (mixture of isomers) [Example 76] .
11

Now take the following compound into account.
Give the measured microsomal CLint at 1 μM of CS(=O)(=O)N1CCN(C(=O)[C@@H]2CN(c3ccc(=O)[nH]n3)C[C@H]2c2ccc(F)cc2F)CCCC1c1ccc(Cl)cc1 (mixture of isomers) [Example 79] .
22

----------
assay_explanation: In vitro metabolism rate determination, human liver microsome (HLM) assay
Type: in vitro ADME
stated_conditions: human, liver microsomes, read-out: HLM: Clint, app
I would appreciate it if you labelled entries MET when microsomal CLint at 1 μM is 20 µL/min/mg or higher, otherwise NOT MET.

Illustrative cases are given below, each with its answer.
Does microsomal CLint at 1 μM meet or surpass 20 µL/min/mg for COCC(=O)N1CCN(C(=O)[C@@H]2CN(C(C)(C)C)C[C@H]2c2ccc(F)cc2F)CCC[C@H]1c1ccc(Cl)cc1 [Example 9] ?
MET

Does microsomal CLint at 1 μM meet or surpass 20 µL/min/mg for COC(=O)N1CCN(C(=O)[C@@H]2CN(C(C)(C)C)C[C@H]2c2ccc(OC)cc2F)CCC[C@H]1c1ccc(Cl)cc1 [Example 71] ?
MET

Does microsomal CLint at 1 μM meet or surpass 20 µL/min/mg for CC(C)(C)N1C[C@@H](C(=O)N2CCC[C@@H](c3ccc(Cl)cc3)N(C(=O)C3CC3)CC2)[C@H](c2ccc(F)cc2F)C1 [Example 7] ?
MET

Does microsomal CLint at 1 μM meet or surpass 20 µL/min/mg for CC(=O)N1CCN(C(=O)[C@@H]2CN(c3ccc(C#N)nn3)C[C@H]2c2ccc(Cl)cn2)CCC[C@H]1c1ccc(Cl)cc1 [Example 72] ?
NOT MET

Does microsomal CLint at 1 μM meet or surpass 20 µL/min/mg for COC(=O)N1CCN(C(=O)[C@@H]2CN(C3CCOCC3)C[C@H]2c2ccc(F)cc2F)CCCC1c1ccccc1 (mixture of isomers) [Example 74] ?
MET

Does microsomal CLint at 1 μM meet or surpass 20 µL/min/mg for CC(=O)N1CCN(C(=O)[C@@H]2CN(C(C)(C)C)C[C@H]2c2ccc(F)cc2F)CCC1c1ccc(F)cc1F (mixture of isomers) [Example 18] ?
MET

Further cases:
Does microsomal CLint at 1 μM meet or surpass 20 µL/min/mg for CC(=O)N1CCN(C(=O)[C@@H]2CN(c3ccc(C#N)nn3)C[C@H]2c2ccc(F)cc2F)CCCC1c1ccccc1F (mixture of isomers) [Example 2] ?
MET

Does microsomal CLint at 1 μM meet or surpass 20 µL/min/mg for CCC(=O)N1CCN(C(=O)[C@@H]2CN(C(C)(C)C)C[C@H]2c2ccc(Cl)cn2)CCC[C@H]1c1ccc(Cl)cc1 [Example 19] ?
MET

Does microsomal CLint at 1 μM meet or surpass 20 µL/min/mg for CC(C)(C)N1C[C@@H](C(=O)N2CCC[C@@H](c3ccc(Cl)cc3)N(C(=O)CC3CC3)CC2)[C@H](c2ccc(F)cc2F)C1 [Example 65] ?
MET

Does microsomal CLint at 1 μM meet or surpass 20 µL/min/mg for CNC(=O)N1CCN(C(=O)[C@@H]2CN(c3cccnn3)C[C@H]2c2ccc(F)cc2F)CCCC1c1ccccc1 (mixture of isomers) [Example 73] ?
MET

Does microsomal CLint at 1 μM meet or surpass 20 µL/min/mg for CC(=O)N1CCN(C(=O)[C@@H]2CN(c3cccnn3)C[C@H]2c2ccc(F)cc2F)CCC1c1ccccc1 (mixture of isomers) [Example 3] ?
MET

Does microsomal CLint at 1 μM meet or surpass 20 µL/min/mg for COC(=O)N1CCN(C(=O)[C@@H]2CN(c3ccc(=O)[nH]n3)C[C@H]2c2ccc(OC)cc2F)CCC[C@H]1c1ccc(Cl)cc1 [Example 69] ?
NOT MET

Does microsomal CLint at 1 μM meet or surpass 20 µL/min/mg for COc1ccc([C@@H]2CN(c3ccc(=O)n(C)n3)C[C@H]2C(=O)N2CCC[C@@H](c3ccc(Cl)cc3)N(C(=O)C3CC3)CC2)c(F)c1 [Example 29] ?
MET

Does microsomal CLint at 1 μM meet or surpass 20 µL/min/mg for CC(=O)N1CCN(C(=O)[C@@H]2CN(C(C)(C)C)C[C@H]2c2ccc(F)cc2F)CCC[C@H]1c1ccc(Cl)cc1 [Example 8] ?
NOT MET
